Assay: Bioavailability in Beagle dog at 2 mg/kg, iv
Assay type: ADME, organism-based, Canis lupus familiaris
Details: in vivo
measure.name: bioavailability (%)

INSERT INTO measurements (molecule_smiles, measure_name, measured_value) VALUES
  ('C=C[C@@H]1C[C@]1(NC(=O)[C@@H]1C[C@@H]2CN1C(=O)[C@H]([C@@H](C)CC)Nc1nc(cs1)CCC/C=C/c1cccc3c1CN(C3)C(=O)O2)C(=O)[N-]S(=O)(=O)C1CC1.[K+]', 'bioavailability', 17);

====

Assay: Cmax in Sprague-Dawley rat at 20 mg/kg, po
Format: ADME, organism-based
Set-up: dose 20 mg/kg, route oral
Conditions: in vivo
measure.name: Cmax (µM)

INSERT INTO assay_data (molecule_smiles, measured_value) VALUES
  ('C=C[C@@H]1C[C@]1(NC(=O)[C@@H]1C[C@@H]2CN1C(=O)[C@H]([C@@H](C)CC)Nc1nc(cs1)CCC/C=C/c1cccc3c1CN(C3)C(=O)O2)C(=O)[N-]S(=O)(=O)C1CC1.[K+]', 5.9);

====

Assay: AUC in Beagle dog at 5 mg/kg, po
Type: ADME, organism-based, Canis lupus familiaris
Design: dose 5 mg/kg, route oral
Settings: plasma
measure.name: AUC (µM·h)

INSERT INTO measurements (molecule_smiles, u, measured_value) VALUES
  ('C=C[C@@H]1C[C@]1(NC(=O)[C@@H]1C[C@@H]2CN1C(=O)[C@H]([C@@H](C)CC)Nc1nc(cs1)CCC/C=C/c1cccc3c1CN(C3)C(=O)O2)C(=O)[N-]S(=O)(=O)C1CC1.[K+]', 'µM·h', 0.5);

====

Assay: Plasma clearance in Sprague-Dawley rat at 4 mg/kg, iv
Type: ADME, organism-based
Set-up: dose 4 mg/kg, route intravenous
measure.name: clearance (mL/min/kg)

INSERT INTO measurements (molecule_smiles, u, measured_value) VALUES
  ('C=C[C@@H]1C[C@]1(NC(=O)[C@@H]1C[C@@H]2CN1C(=O)[C@H]([C@@H](C)CC)Nc1nc(cs1)CCC/C=C/c1cccc3c1CN(C3)C(=O)O2)C(=O)NS(=O)(=O)C1CC1.O=C(O)C(F)(F)F', 'mL/min/kg', 17);
